Source of measurements: patent US20220064329A1

# system: T1, recombinant human activated Factor VII (FVIIa) (human, UniProt P08709 61-212; P08709 213-466, ten glutamate residues of the Gla domain may be gamma-carboxylated)
# T1 construct: chains tethered by a disulfide bond; also called Factor VIIa; rFVIIa
# T1 sequence 1: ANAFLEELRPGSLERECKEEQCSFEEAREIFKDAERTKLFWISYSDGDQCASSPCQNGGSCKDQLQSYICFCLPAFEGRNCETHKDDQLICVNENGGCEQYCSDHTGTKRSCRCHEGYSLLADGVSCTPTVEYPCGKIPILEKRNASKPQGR
# T1 sequence 2: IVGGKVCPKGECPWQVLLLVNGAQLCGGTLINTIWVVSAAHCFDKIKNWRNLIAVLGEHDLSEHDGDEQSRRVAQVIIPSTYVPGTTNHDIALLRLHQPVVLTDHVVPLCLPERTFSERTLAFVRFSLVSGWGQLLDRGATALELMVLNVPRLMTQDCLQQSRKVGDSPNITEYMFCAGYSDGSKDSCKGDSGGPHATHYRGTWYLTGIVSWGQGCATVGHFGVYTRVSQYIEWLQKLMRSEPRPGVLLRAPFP
# protocol_notes: BLI (Fortebio)
readout_type: Kd (nM)
Please state the figure in nM; there is no need to write the unit.

binder	Kd, nM
VH SEQ ID NO 626 / VL SEQ ID NO 494 (antibody, IgG4, V domains shown, humanized 11F2; IgG4 S228P/kappa) VH: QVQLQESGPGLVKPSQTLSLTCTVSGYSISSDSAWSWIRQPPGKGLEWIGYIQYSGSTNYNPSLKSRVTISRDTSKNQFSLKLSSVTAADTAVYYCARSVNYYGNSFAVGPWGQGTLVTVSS VL: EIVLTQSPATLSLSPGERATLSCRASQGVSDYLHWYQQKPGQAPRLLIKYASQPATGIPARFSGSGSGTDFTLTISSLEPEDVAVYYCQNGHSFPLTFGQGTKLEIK	1.8

Next:
For reference, reported Kd for VH SEQ ID NO 650 / VL SEQ ID NO 358 (antibody, IgG4, V domains shown, humanized 11F2; IgG4 S228P/kappa) VH: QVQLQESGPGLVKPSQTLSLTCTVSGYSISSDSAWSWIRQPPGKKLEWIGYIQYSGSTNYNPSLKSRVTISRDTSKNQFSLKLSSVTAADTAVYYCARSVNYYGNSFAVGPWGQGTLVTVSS VL: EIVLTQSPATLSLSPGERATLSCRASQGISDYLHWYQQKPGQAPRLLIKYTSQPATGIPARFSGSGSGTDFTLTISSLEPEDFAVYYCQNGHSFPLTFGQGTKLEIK stands at 1.1
